Cited source for all entries: PubChem BioAssay AID2060500

Tested on: 596521-263-R-J1-PDC complex spheroids, viability % of control;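 further: spheroids exposed to drugs for 7 days before viability reading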
Experiment: Anticancer human tumor 596521-263-R-J1-PDC patient-derived soft tissue sarcoma cell line growth inhibition [GQUAD]
Details: curve of first compound; second compound 0.316 µM

{"Molecule": "CC(=O)O[C@H]1C(=O)[C@@]2(C)[C@H]([C@H](OC(=O)c3ccccc3)[C@]3(O)C[C@H](OC(=O)[C@H](O)[C@@H](NC(=O)c4ccccc4)c4ccccc4)C(C)=C1C3(C)C)[C@]1(OC(C)=O)CO[C@@H]1C[C@@H]2O + Cc1cnc(CNC(=O)c2c(=O)c3ccc(N4CCCN(C)CC4)nc3n3c2sc2ccccc23)cn1", "Measurement Target": "596521-263-R-J1-PDC complex spheroids, viability % of control", "IC50": "< 31.6 nM"}
{"Molecule": "CC(C)n1c(=O)n(C)c2cnc3cc(F)c(-c4ccc(OCCCN5CCCCC5)nc4)cc3c21 + Cc1[nH]c2ccc(F)cc2c1-c1nc2c3cccnc3c3ncccc3c2[nH]1", "Measurement Target": "596521-263-R-J1-PDC complex spheroids, viability % of control", "IC50": "> 10000 nM"}
{"Molecule": "CC1COCCN1c1cc(-c2ccnn2C)c2ccnc(-c3ccn[nH]3)c2n1 (stereo not drawn) + Cc1cnc(CNC(=O)c2c(=O)c3ccc(N4CCCN(C)CC4)nc3n3c2sc2ccccc23)cn1", "Measurement Target": "596521-263-R-J1-PDC complex spheroids, viability % of control", "IC50": "191 nM"}
